Below, each of the compounds is paired with its reported MIC, KP value.
- System: K. pneumoniae ATCC 13883
- Format: cell-based
- test context: ATCC 13883, 20 h
API: value field is a number in µg/mL; no unit string.

{"compound": "NCCCC[C@H](NC(=O)CCN(Cc1ccc(F)cc1)C(=O)[C@H](CCCCN)NC(=O)COCCOCCNC(=O)CCN(Cc1ccc(F)cc1)C(=O)[C@H](CCCCN)NC(=O)CCN(Cc1ccc(F)cc1)C(=O)[C@H](CCCCN)NC(=O)COCCOCCNC(=O)CCN(Cc1ccc(F)cc1)C(=O)[C@H](CCCCN)NC(=O)CCN(Cc1ccc(F)cc1)C(=O)[C@@H](N)CCCCN)C(=O)N(CCC(N)=O)Cc1ccc(F)cc1 [Compound 16, H-[X]2-sPEG2-[X]2-sPEG2-[X]2-NH2]", "outcome measure": "MIC, KP", "numeric result": 64}

Please find the next compound below.
Consider the compound NCCCC[C@H](NC(=O)CCN(Cc1ccc(F)cc1)C(=O)[C@H](CCCCN)NC(=O)CCN(Cc1ccc(F)cc1)C(=O)[C@H](CCCCN)NC(=O)CCOCCOCCOCCOCCOCCOCCNC(=O)CCN(Cc1ccc(F)cc1)C(=O)[C@H](CCCCN)NC(=O)CCN(Cc1ccc(F)cc1)C(=O)[C@H](CCCCN)NC(=O)CCN(Cc1ccc(F)cc1)C(=O)[C@@H](N)CCCCN)C(=O)N(CCC(N)=O)Cc1ccc(F)cc1 [Compound 10, H-[X]3-sPEG6-[X]3-NH2] and give its measured MIC, KP. 64

Source listed as paper PMC8268887.
